Numbers sourced from PubChem BioAssay.

protocol summary: small-molecule microarray binders of probe aWnt5a, primary screen, biochemical, biotinylated probe, 635/667 nm fluorescence (AID 1113);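 note: score merges 667 nm fluorescence intensity with signal-to-noise per printed feature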
condition set: higher = more signal
In this section we review reported composite z-score values for a set of compounds.

C[C@@H]1C=CCC(=O)OC[C@H](C)C(=O)N[C@@H](Cc2ccccc2)C(=O)OC1 = -0.118
CC(=O)OC[C@H]1O[C@H](CC=NOC(C)CN2CCCCc3nc(C)c(C)cc32)C=C[C@@H]1OC(C)=O (stereo partly drawn) = 0.0044
COC(=O)CC=C[C@@H](C)[C@@H](C=NOC(C)CN1CCCc2nc(C)c(C)cc21)NS(=O)(=O)c1ccc(C)cc1 (stereo partly drawn) = -0.0758
CC(C)CON=C1C[C@@H](O)[C@@H](O)[C@@H]2[C@@H]3C(=O)N(C(C)(C)C)C(=O)[C@@H]3CC[C@@H]12 = -0.178
C[C@@H]1CC[C@H]2C(=O)OC(Cc3ccccc3)CN2[C@H]1c1ccc(Br)cc1 (stereo partly drawn) = -0.228
COc1ccc(O[C@H]2C=C[C@@H](c3ccccc3)O[C@@H]2CO)cc1 = -0.148
COC(=O)[C@H](C)NC(=O)CCC1CC(OC(=O)NCc2ccc3c(c2)OCO3)CC2(CCCC(COC(=O)NCc3ccccc3)O2)O1 (stereo partly drawn) = -0.001

As a next step, examine the compound that follows.
get_value(item= `CC(C)[C@@H](OCc1ccccc1)[C@H](C)CON=C1[C@H]2CCn3c(=O)n(-c4ccccc4)c(=O)n3[C@H]2[C@H](O)[C@@H]2O[C@H]12` , readout=composite z-score) returns -0.147
